The measurements presented in this section are drawn from paper PMC5431231.

biological target: human pulmonary SP-A protein in human lung tissue (Homo sapiens, endogenous lung tissue, UniProt Q8IWL2)
Sequence (Q8IWL2 21-248): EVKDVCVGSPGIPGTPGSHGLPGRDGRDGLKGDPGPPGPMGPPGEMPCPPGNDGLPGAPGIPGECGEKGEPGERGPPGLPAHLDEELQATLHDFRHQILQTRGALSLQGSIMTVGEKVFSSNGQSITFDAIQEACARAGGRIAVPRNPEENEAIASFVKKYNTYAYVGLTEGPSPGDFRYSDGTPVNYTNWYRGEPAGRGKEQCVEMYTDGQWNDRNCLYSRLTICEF

- binder: "Nb43 (VHH) VHH: QLQLVESGGGLVQSGGSLRLSCAASGFTFNDYRMSWVRQAPGKGLEWVSDINSGGSSTYYADSVKGRFTVSRDNAKNTLYLQMNSLKPEDTAIYYCVALLGRGCSGLVQGAFGPWGQGTQVTVSS"
  binding result: "binds"
- binder: "Nb38 (VHH) VHH: QVKLVESGGGSVQAGGSLILSCTASGSDYRWMYIARFRQCPGKEREGVAAIYTDDTDDSSPIYATSAKGRFTISQDKDKNAVYLQMNSPKPEDTAMYYCAARAFGGTWSLSSPDDFSAWGQGTQVTVSS"
  binding result: "binds"
- binder: "Nb11 (VHH) VHH: QLQLVESGGGLVQPGGSLRLSCTASKFHLDSYAVAWFRQTPGKEREAVSFINTSDDVTYFADSVKGRFTISRDNSKNTVYLQMNVLKPEDTSIYVCAAVRSPGPTGPSMQPMWSVPDLYDYWGQGTQVTVSS"
  binding result: "binds"
- binder: "Nb15 (VHH) VHH: QLQLVESGGGLVQPGGSLSVSCAVRGRDLDYYVIGWFRQAPGKEREGVSCINNSDDTTYYSDSVKGRFTISRDHAKNTVYLQMNNLKPEDTALYYCAADFDRLDFTVKAMCVMKFFYYWGQGTQVTVSS"
  binding result: "binds"
